- target: Melanocortin receptor 5 (Homo sapiens, UniProt P33032); further: in other assays of this panel Not Active means under 50% inhibition at 10 µM
- Sequence (P33032 whole entry): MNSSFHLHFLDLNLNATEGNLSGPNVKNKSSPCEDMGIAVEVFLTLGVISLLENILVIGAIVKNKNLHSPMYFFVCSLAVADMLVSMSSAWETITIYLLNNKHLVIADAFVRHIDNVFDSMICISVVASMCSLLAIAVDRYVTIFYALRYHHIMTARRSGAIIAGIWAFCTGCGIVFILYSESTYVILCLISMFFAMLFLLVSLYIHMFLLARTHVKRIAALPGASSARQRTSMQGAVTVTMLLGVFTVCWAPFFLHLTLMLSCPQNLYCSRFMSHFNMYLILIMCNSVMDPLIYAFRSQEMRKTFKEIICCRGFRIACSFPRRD
- Type: cell membranes, HEK293, Membrane
- cond: hek293
recordedEndpoint: IC50

Please review the entries below; each comes with its answer.
C#C[C@]1(O)CC[C@H]2[C@@H]3CCC4=CC(=O)CC[C@@H]4[C@H]3CC[C@@]21C: Not Active
O=[As][O-].[Na+] [SODIUM ARSENITE]: Not Active
NCC(CC(=O)O)c1ccc(Cl)cc1 (configuration not stated): Not Active
CC[C@@]1(O)C(=O)OCc2c1cc1n(c2=O)Cc2cc3c(CN(C)C)c(O)ccc3nc2-1: Not Active

Let us examine a further case.
Asked: Dear colleague, I am looking for the recorded IC50 of the following compound: Nc1nc(F)nc2c1ncn2[C@@H]1O[C@H](CO)[C@@H](O)[C@@H]1O
Given back: Not Active

---

- target: Leukotriene C4 synthase (Cavia porcellus);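 further: enzyme inhibition assay of leukotriene C4 synthase, using LTA4 as the substrate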; further: in other assays of this panel Not Active means under 50% inhibition at 10 µM
- Sequence (A6XA80 whole entry): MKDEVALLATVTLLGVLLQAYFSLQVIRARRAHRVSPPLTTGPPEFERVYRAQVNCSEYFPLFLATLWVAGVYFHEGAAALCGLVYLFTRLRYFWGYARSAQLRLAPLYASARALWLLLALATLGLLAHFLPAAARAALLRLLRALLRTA
- assayNotes: biochemical
- Assay type: tissue-based, Lung
recordedEndpoint: IC50

Please review the entries below; each comes with its answer.
CN(Cc1cc(Br)cc(Br)c1N)C1CCCCC1 [BROMHEXINE]: Not Active
CC(Cl)(Cl)Cl [TRICHLOROETHANE]: Not Active
O=c1[nH]c2ccccc2c2ccccc12: Not Active
CC(C)(C#N)c1cc(Cn2cncn2)cc(C(C)(C)C#N)c1 [ANASTROZOLE]: Not Active

Asked: Dear colleague, I am looking for the recorded IC50 of the following compound: O=C(Nc1ccc(Cl)c(Cl)c1)c1cc(Cl)cc(Cl)c1O [3,3',4',5-TETRACHLOROSALICYLANILIDE]
Given back: Not Active

Asked: Dear colleague, I am looking for the recorded IC50 of the following compound: CNC[C@H](O)c1ccc(O)c(O)c1 [EPINEPHRINE]
Given back: Not Active

Asked: Dear colleague, I am looking for the recorded IC50 of the following compound: CO[C@@H]1[C@@H](OC)[C@H](C)[C@@](O)(CC(=O)O)O[C@H]1[C@H](C)[C@H]1O[C@@]2(CC[C@@](C)([C@H]3CC[C@@](C)([C@@H]4O[C@@H]([C@H]5O[C@](C)(O)[C@H](C)C[C@@H]5C)C[C@@H]4O[C@@H]4C[C@H](OC)[C@@H](OC)[C@H](C)O4)O3)O2)C[C@H](O)[C@H]1C.N [MADURAMICIN]
Given back: Not Active

Asked: Dear colleague, I am looking for the recorded IC50 of the following compound: O=C(O)CCc1nc(-c2ccccc2)c(-c2ccccc2)o1 [OXAPROZIN]
Given back: Not Active

Asked: Dear colleague, I am looking for the recorded IC50 of the following compound: COc1cc(/C=C/C(=O)O)ccc1O [FERULATE]
Given back: Not Active

Asked: Dear colleague, I am looking for the recorded IC50 of the following compound: NCC(CC(=O)O)c1ccc(Cl)cc1 (stereo not given) [BACLOFEN]
Given back: Not Active

Asked: Dear colleague, I am looking for the recorded IC50 of the following compound: CC(C)Cn1cnc2c(N)nc3ccccc3c21 [IMIQUIMOD]
Given back: Not Active

Asked: Dear colleague, I am looking for the recorded IC50 of the following compound: O=C1CN(/N=C/c2ccc([N+](=O)[O-])o2)C(=O)N1 [NITROFURANTOIN]
Given back: Not Active

Asked: Dear colleague, I am looking for the recorded IC50 of the following compound: C[C@@H]1[C@H](O)[C@@H](C)/C=C/C=C/C=C/C=C/C=C/C=C/C=C/[C@H](O[C@@H]2O[C@H](C)[C@@H](O)[C@H](N)[C@@H]2O)C[C@@H]2O[C@](O)(C[C@@H](O)C[C@@H](O)[C@H](O)CC[C@@H](O)C[C@@H](O)CC(=O)O[C@H]1C)C[C@H](O)[C@H]2C(=O)O [AMPHOTERICIN B]
Given back: Not Active

Asked: Dear colleague, I am looking for the recorded IC50 of the following compound: Cc1cccc(C)c1NC(=O)C(C)N (stereo not given) [TOCAINIDE]
Given back: Not Active

Asked: Dear colleague, I am looking for the recorded IC50 of the following compound: CC(=O)O[C@]1(C(C)=O)CC[C@H]2[C@@H]3C[C@H](C)C4=CC(=O)CC[C@]4(C)[C@H]3CC[C@@]21C [MEDROXYPROGESTERONE ACETATE]
Given back: Not Active

---

- target: Cytochrome P450 1A2 (Homo sapiens, UniProt P05177); further: in other assays of this panel Not Active means under 50% inhibition at 10 µM
- Sequence (P05177 whole entry): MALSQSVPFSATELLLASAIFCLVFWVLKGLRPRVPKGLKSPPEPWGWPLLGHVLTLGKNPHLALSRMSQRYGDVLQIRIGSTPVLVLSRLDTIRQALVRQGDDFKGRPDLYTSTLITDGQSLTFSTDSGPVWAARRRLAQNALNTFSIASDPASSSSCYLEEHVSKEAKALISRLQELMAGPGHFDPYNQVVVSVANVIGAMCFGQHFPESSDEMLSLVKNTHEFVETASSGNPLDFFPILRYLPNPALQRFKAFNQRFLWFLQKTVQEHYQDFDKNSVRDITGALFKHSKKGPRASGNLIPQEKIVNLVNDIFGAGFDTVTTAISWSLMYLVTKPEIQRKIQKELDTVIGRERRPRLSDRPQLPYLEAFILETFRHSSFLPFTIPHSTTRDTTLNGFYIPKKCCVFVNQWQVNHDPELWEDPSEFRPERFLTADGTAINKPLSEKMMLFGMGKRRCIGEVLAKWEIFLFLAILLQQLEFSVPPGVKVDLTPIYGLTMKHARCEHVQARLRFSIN
- cond: bti-tn-5b1-4
recordedEndpoint: IC50

Please review the entries below; each comes with its answer.
COc1cc([C@@H]2c3cc4c(cc3[C@H](O)[C@H]3COC(=O)[C@H]23)OCO4)cc(OC)c1OC: Not Active
O=C(O)c1ccccc1: Not Active
NC(=O)CN1CCCC1=O: Not Active
CCOC(=O)C1=C(C)NC(C)=C(C(=O)OCC)C1c1ccccc1/C=C/C(=O)OC(C)(C)C: Not Active
CC(CN1c2ccccc2Sc2ccccc21)N(C)C (stereo not given): Not Active
Cc1[nH]c(=O)c(C#N)cc1-c1ccncc1: Not Active

Asked: Dear colleague, I am looking for the recorded IC50 of the following compound: COc1ccc(Cl)cc1C(=O)NCCc1ccc(S(=O)(=O)NC(=O)NC2CCCCC2)cc1 [GLYBURIDE]
Given back: Not Active

Asked: Dear colleague, I am looking for the recorded IC50 of the following compound: OC[C@H]1O[C@@H]2O[C@H]3[C@H](O)[C@@H](O)[C@@H](O[C@H]4[C@H](O)[C@@H](O)[C@@H](O[C@H]5[C@H](O)[C@@H](O)[C@@H](O[C@H]6[C@H](O)[C@@H](O)[C@@H](O[C@H]7[C@H](O)[C@@H](O)[C@@H](O[C@H]8[C@H](O)[C@@H](O)[C@@H](O[C@H]1[C@H](O)[C@H]2O)O[C@@H]8CO)O[C@@H]7CO)O[C@@H]6CO)O[C@@H]5CO)O[C@@H]4CO)O[C@@H]3CO
Given back: Not Active

Asked: Dear colleague, I am looking for the recorded IC50 of the following compound: COC(=O)Nc1nc2ccc(Sc3ccccc3)cc2[nH]1
Given back: Not Active

Asked: Dear colleague, I am looking for the recorded IC50 of the following compound: Cc1cn([C@H]2C=C[C@@H](CO)O2)c(=O)[nH]c1=O
Given back: Not Active

---

- target: Muscarinic acetylcholine receptor M4 (Homo sapiens, UniProt P08173); further: in other assays of this panel Not Active means under 50% inhibition at 10 µM
- Sequence (P08173 whole entry): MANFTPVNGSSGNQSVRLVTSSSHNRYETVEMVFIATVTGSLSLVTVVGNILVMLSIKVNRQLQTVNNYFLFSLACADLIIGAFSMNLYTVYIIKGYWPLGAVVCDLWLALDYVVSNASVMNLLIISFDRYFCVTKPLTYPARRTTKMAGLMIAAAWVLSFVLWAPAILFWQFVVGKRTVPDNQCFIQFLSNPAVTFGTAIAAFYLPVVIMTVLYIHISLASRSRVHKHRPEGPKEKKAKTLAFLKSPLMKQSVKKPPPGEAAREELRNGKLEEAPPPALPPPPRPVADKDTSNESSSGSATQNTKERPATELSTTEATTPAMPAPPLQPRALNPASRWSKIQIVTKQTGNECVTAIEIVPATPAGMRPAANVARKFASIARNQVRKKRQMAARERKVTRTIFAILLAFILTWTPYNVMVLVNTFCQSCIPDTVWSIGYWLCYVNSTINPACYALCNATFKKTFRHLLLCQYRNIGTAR
- Type: cell membranes, CHO-K1, Membrane
- cond: cho-k1
recordedEndpoint: IC50

Please review the entries below; each comes with its answer.
C1CCN2C[C@@H]3C[C@@H](CN4CCCC[C@@H]34)[C@H]2C1: Not Active
Cc1[nH]c(=O)c(C#N)cc1-c1ccncc1: Not Active
NS(=O)(=O)c1cc(C(=O)O)c(NCc2ccco2)cc1Cl [FUROSEMIDE]: Not Active
CCN(CC)CCNC(=O)c1cc(Cl)c(N)cc1OC [METOCLOPRAMIDE]: Not Active

Let us examine a further case.
Asked: Dear colleague, I am looking for the recorded IC50 of the following molecule: COc1ccc(Cl)cc1C(=O)NCCc1ccc(S(=O)(=O)NC(=O)NC2CCCCC2)cc1 [GLYBURIDE]
Given back: Not Active

---

- assayNotes: DRUGMATRIX: Interleukin IL-1 radioligand binding (ligand: [125I] interleukin 1beta)
- Format: cell membranes, Membrane
- cond: nih3t3; Not Active = under 50% inhibition at 10 µM
recordedEndpoint: IC50

NC(N)=Nc1nc(CSCCC(N)=NS(N)(=O)=O)cs1 [FAMOTIDINE]: Not Active
CC[C@H]1OC(=O)[C@H](C)[C@@H](O[C@H]2C[C@@](C)(OC)[C@@H](O)[C@H](C)O2)[C@H](C)[C@@H](O[C@@H]2O[C@H](C)C[C@H](N(C)C)[C@H]2O)[C@](C)(O)C[C@@H](C)C(=O)[C@H](C)[C@@H](O)[C@]1(C)O [ERYTHROMYCIN]: Not Active
ClC1=C(Cl)[C@]2(Cl)[C@@H]3[C@@H]4C[C@@H]([C@H]5O[C@@H]45)[C@@H]3[C@@]1(Cl)C2(Cl)Cl [DIELDRIN]: Not Active

---

- target: Mitogen-activated protein kinase 1 (Homo sapiens)
- Sequence (P28482 whole entry): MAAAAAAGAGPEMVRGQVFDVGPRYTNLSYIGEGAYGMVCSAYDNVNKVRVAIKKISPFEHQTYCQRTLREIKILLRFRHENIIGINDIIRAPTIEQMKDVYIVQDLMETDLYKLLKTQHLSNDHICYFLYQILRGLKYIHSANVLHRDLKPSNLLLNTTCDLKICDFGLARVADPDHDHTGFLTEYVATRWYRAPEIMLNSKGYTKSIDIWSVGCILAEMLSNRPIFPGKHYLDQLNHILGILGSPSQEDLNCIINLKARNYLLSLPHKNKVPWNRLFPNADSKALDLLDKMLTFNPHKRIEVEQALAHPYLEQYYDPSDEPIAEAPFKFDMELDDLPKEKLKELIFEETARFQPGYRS
- assayNotes: DRUGMATRIX: Protein Serine/Threonine Kinase, ERK2 enzyme inhibition (substrate: Myelin Basic Protein)
- Set-up: species or system Escherichia coli
- cond: Not Active = under 50% inhibition at 10 µM
recordedEndpoint: IC50

Please review the entries below; each comes with its answer.
OC[C@H]1OC2C3[C@@H](CO)OC(O[C@H]4[C@H](O)[C@@H](O)[C@@H](O[C@H]5[C@H](O)[C@@H](O)[C@@H](O[C@H]6[C@H](O)[C@@H](O)[C@@H](O[C@H]7[C@H](O)[C@@H](O)[C@@H](O[C@H]8[C@H](O)[C@@H](O)[C@@H](O[C@H]9[C@H](O)[C@@H](O)C(OC1[C@H](O)[C@H]2O)O[C@@H]9CO)O[C@@H]8CO)O[C@@H]7CO)O[C@@H]6CO)O[C@@H]5CO)O[C@@H]4CO)[C@H](O)[C@H]3O: Not Active
Oc1ccccc1: Not Active
COc1ccccc1OCCNCC(O)COc1cccc2[nH]c3ccccc3c12 (configuration not stated): Not Active
CC(=O)Nc1ccc2c(c1)Cc1ccccc1-2: Not Active
CNC[C@H](O)c1ccc(O)c(O)c1 [EPINEPHRINE]: Not Active

Asked: Dear colleague, I am looking for the recorded IC50 of the following compound: CC[C@@]1(O)C(=O)OCc2c1cc1n(c2=O)Cc2cc3c(CN(C)C)c(O)ccc3nc2-1
Given back: Not Active
